system: BaF3 KRAS G12C; assay: MTT assay for cell viability in 96 well cell culture plate; type: cell-based; details: Mus musculus, 48 h treatment
Test readout: IC50 (µM)
# output: bare number, implied unit µM

query: Sample CCCCCNC(=N)N/N=C/c1c[nH]c2ccc(OC)cc12.O=C(O)/C=C\C(=O)O [Tegaserode maleate] — what was its IC50?
result: 10.2
